Test system: PC-12
Test: Induction of neurite outgrowth in NGF-induced rat PC12 cells assessed as neurite bearing cells at 20 uM cotreated with 20 ng/ml NGF incubated for 48 hrs by light microscopy
Format: functional
Calls of active or inactive are those of the source. The rule behind the calls is not given here.
Reported endpoint: Activity

Prompt line: Endpoint output: Activity of `CC1=C(CCC2=CCOC2=O)[C@]2(C)CC[C@@H](O)[C@@](C)(CO)[C@H]2CC1` . Value?
Response line: Active

Prompt line: Cool, now C=C1CC[C@@H]2[C@](C)(CO)[C@H](O)CC[C@@]2(C)[C@@H]1C/C=C1/C(=O)OC[C@H]1O [ANDROGRAPHOLIDE]
Response line: Active

Prompt line: Cool, now C[C@@]1(CO)[C@H](O)CC[C@@]2(C)C3CC(C4=CCOC4=O)O[C@]3(C)CC[C@H]12 (stereo partly drawn)
Response line: inactive

Prompt line: Cool, now C=C1CC[C@@H]2[C@](C)(CO)[C@H](O)CC[C@@]2(C)[C@@H]1CCC1C(=O)OC[C@H]1O (stereo partly drawn)
Response line: inactive

Prompt line: Cool, now C=C1CC[C@@H]2[C@](C)(CO)[C@H](O)CC[C@@]2(C)[C@@H]1CCC1=CCOC1=O [DEOXYANDROGRAPHOLIDE]
Response line: inactive

Others:
Prompt line: Endpoint output: Activity of `C=C1CC[C@@H]2[C@](C)(CO)[C@H](O)CC[C@@]2(C)[C@@H]1C/C=C1\C=COC1=O` . Value?
Response line: inactive

Prompt line: Cool, now `C=C1CC[C@@H]2[C@](C)(COC(C)=O)[C@H](OC(C)=O)CC[C@@]2(C)[C@@H]1CCC1=CCOC1=O`
Response line: inactive

====

Test system: PC-12
Test: Induction of neurite outgrowth in NGF-induced rat PC12 cells assessed as neurite bearing cells at 20 uM cotreated with 20 ng/ml NGF incubated for 48 hrs by light microscopy
Format: functional
Activity calls are given as the source filed them. No cut-off for these calls is given here.
Reported endpoint: Activity

Prompt line: Endpoint output: Activity of `C=C1CC[C@@H]2[C@](C)(COC(C)=O)[C@H](OC(C)=O)CC[C@@]2(C)[C@@H]1C/C=C1\C=COC1=O` . Value?
Response line: inactive

Prompt line: Cool, now C=C1CC[C@@H]2[C@](C)(COC(C)=O)[C@H](OC(C)=O)CC[C@@]2(C)[C@@H]1CCC1C(=O)OC[C@H]1OC(C)=O (stereo partly drawn)
Response line: inactive

Prompt line: Cool, now `C=C1CC[C@@H]2[C@](C)(COC(C)=O)[C@H](OC(C)=O)CC[C@@]2(C)[C@@H]1/C=C/C1=CCOC1=O`
Response line: inactive

====

Assay: Lipophilicity, log P of the compound
Assay type: physicochemical
Conditions: octanol/water; read-out: logP
Reported endpoint: logP
Keep it simple and answer with nothing but the number.

// known answers, use as guide
Prompt line: Endpoint output: logP of `CC(=O)OC[C@@]1(C)[C@H]2CCC(C)=C(C[C@H](OC(C)=O)C3=CCOC3=O)[C@]2(C)CC[C@H]1OC(C)=O` . Value?
Response line: 2.96

Prompt line: Cool, now C[C@@]1(CO)[C@H](O)CC[C@@]2(C)C3CC(C4=CCOC4=O)O[C@]3(C)CC[C@H]12 (stereo partly specified)
Response line: 2.16

Prompt line: Cool, now C=C1CC[C@@H]2[C@](C)(CO[C@@H]3O[C@H](CO)[C@@H](O)[C@H](O)[C@H]3O)CCC[C@@]2(C)[C@@H]1CCC1=CCOC1=O [NEOANDROGRAPHOLIDE]
Response line: 3.07

Prompt line: Cool, now `CC1=C(CCC2=CCOC2=O)[C@]2(C)CC[C@@H](O)[C@@](C)(CO)[C@H]2CC1`
Response line: 2.9

Others:
Prompt line: Endpoint output: logP of C=C1CC[C@@H]2[C@](C)(COC(C)=O)[C@H](OC(C)=O)CC[C@@]2(C)[C@@H]1CCC1C(=O)OC[C@H]1OC(C)=O (stereo partly specified) . Value?
Response line: 3.71

Prompt line: Cool, now `C=C1CC[C@@H]2[C@](C)(COC(C)=O)[C@H](OC(C)=O)CC[C@@]2(C)[C@@H]1/C=C/C1=CCOC1=O`
Response line: 3.83

Prompt line: Cool, now `C=C1CC[C@@H]2[C@](C)(COC(C)=O)[C@H](OC(C)=O)CC[C@@]2(C)[C@@H]1C/C=C1\C=COC1=O`
Response line: 3.87

Prompt line: Cool, now C=C1CC[C@@H]2[C@](C)(CO)[C@H](O)CC[C@@]2(C)[C@@H]1CCC1C(=O)OC[C@H]1O (stereo partly specified)
Response line: 2.54

Prompt line: Cool, now C=C1CC[C@@H]2[C@](C)(CO)[C@H](O)CC[C@@]2(C)[C@@H]1CCC1=CCOC1=O [DEOXYANDROGRAPHOLIDE]
Response line: 3.43

Prompt line: Cool, now `C=C1CC[C@@H]2[C@](C)(CO)[C@H](O)CC[C@@]2(C)[C@@H]1C/C=C1\C=COC1=O`
Response line: 3.28

Prompt line: Cool, now `C=C1CC[C@@H]2[C@](C)(COC(C)=O)[C@H](OC(C)=O)CC[C@@]2(C)[C@@H]1CCC1=CCOC1=O`
Response line: 4.02
